# Test system: rice
# Measurement notes: Low temperature assay on rice seedlings
# Type: in vivo
# Conditions: 0.0001 mg/l, 5 °C, 12 days

[
  {
    "Compound": "CC(C)(O)CC[C@@H](O)[C@](C)(O)[C@H]1CC[C@@]2(O)[C@@H]3CC(=O)[C@@H]4C[C@@H](O)[C@@H](O)C[C@]4(C)[C@H]3CC[C@]12C",
    "Target or system": "rice",
    "Area of leaf, cm^2": 14
  },
  {
    "Compound": "CC(C)C[C@@H](O)[C@H](O)[C@@H](C)[C@H]1CCC2C3CC(=O)C4C[C@H](O)[C@H](O)C[C@]4(C)C3CC[C@@]21C (stereo partly drawn)",
    "Target or system": "rice",
    "Area of leaf, cm^2": 14
  },
  {
    "Compound": "C=C(C(C)C)[C@@H](O)[C@H](O)[C@@H](C)[C@H]1CCC2C3COC(=O)C4C[C@H](O)[C@H](O)C[C@]4(C)C3CC[C@@]21C (stereo partly drawn)",
    "Target or system": "rice",
    "Area of leaf, cm^2": 14
  }
]

---

Examples of molecules with documented Total angle follow.
# Test system: rice
# Measurement notes: Rice leaf bending assay (leaf inclination angle)
# Format: in vivo
# Conditions: 0.0001 mg/l, 48 hr, sum of 20 rice
# Source text: According to a rice leaf bending assay, we measured leaf inclination angle of rice to determine effects of the natural brassinolide analogues on the enhancement of plant development. The larger the leaf inclination angle of rice, the more effects on plant development. The detailed assay procedure is as follows: The natural brassinolide analogues, BR1, BR2, BR3, BR4, BR5 and BR6, used herein, were those prepared by the method of Example 1. […]

[
  {
    "Molecule": "CC(C)[C@H](C)[C@@H](O)[C@H](O)[C@@H](C)[C@H]1CCC2C3CC(=O)C4C[C@H](O)CC[C@]4(C)C3CC[C@@]21C (stereo partly drawn)",
    "Unit text": "degree",
    "Total angle": 76
  },
  {
    "Molecule": "CC[C@@H](C(C)C)[C@@H](O)[C@H](O)[C@@H](C)[C@H]1CCC2C3COC(=O)C4C[C@H](O)[C@H](O)C[C@]4(C)C3CC[C@@]21C (stereo partly drawn)",
    "Unit text": "degree",
    "Total angle": 80.5
  },
  {
    "Molecule": "CC(C)[C@H](C)[C@@H](O)[C@H](O)[C@@H](C)[C@H]1CCC2C3COC(=O)C4C[C@H](O)[C@H](O)C[C@]4(C)C3CC[C@@]21C (stereo partly drawn)",
    "Unit text": "degree",
    "Total angle": 106.8
  },
  {
    "Molecule": "C=C(C(C)C)[C@@H](O)[C@H](O)[C@@H](C)[C@H]1CCC2C3COC(=O)C4C[C@H](O)[C@H](O)C[C@]4(C)C3CC[C@@]21C (stereo partly drawn)",
    "Unit text": "degree",
    "Total angle": 76.8
  },
  {
    "Molecule": "CC(C)(O)CC[C@@H](O)[C@](C)(O)[C@H]1CC[C@@]2(O)[C@@H]3CC(=O)[C@@H]4C[C@@H](O)[C@@H](O)C[C@]4(C)[C@H]3CC[C@]12C",
    "Unit text": "degree",
    "Total angle": 85
  },
  {
    "Molecule": "CC(C)C[C@@H](O)[C@H](O)[C@@H](C)[C@H]1CCC2C3CC(=O)C4C[C@H](O)[C@H](O)C[C@]4(C)C3CC[C@@]21C (stereo partly drawn)",
    "Unit text": "degree",
    "Total angle": 78
  }
]
